Test: California Title 22 toxicity test for hazardous waste characterization
Format: in vivo, Pimephales promelas
Details: Pimephales promelas (fathead minnow), in vivo; 0.65 uM dye solution in water tested at 750, 500 and 250 mg/L, Fathead minnow; read-out: median lethal concentration (LC50)
Kindly supply the reported LC50 values for the records listed here.

C[n+]1c(C=C2C=CN(CCCSCC(N)C(=O)[O-])c3ccccc32)sc2ccccc21.I (centres unmarked) [Dye No. 4] yielded LC50 of > 750 µg/mL

LC50 recorded for this compound, C[N+](C)(C)CCC[n+]1c(-c2ccc(S(=O)(=O)[O-])cc2)c2cc(N)ccc2c2ccc(N)cc21.[I-] [Dye No. 11] , is > 750 µg/mL
